assay: in vitro; format: in vitro ADME, P. aeruginosa PAO1; conditions: cells or culture medium
Readout Name: remaining at 2 h (%)
Provide the reading as a plain figure in %.

Substance | remaining at 2 h, %
Ac-DRRRFNSADYKGARRRKAD-NH2 [compound 25] | 30

Problem: What value of remaining at 2 h has been recorded for this entry: Ac-DRRRFNSADYKAPRRRKAD-NH2 [compound 24]
Solution: 41

Problem: What value of remaining at 2 h has been recorded for this entry: Ac-DRRRFNSADYKGPRRRKLD-NH2 [compound 30]
Solution: 51

Problem: What value of remaining at 2 h has been recorded for this entry: Ac-DRRRFNSLDYKGPRRRKAD-NH2 [compound 20]
Solution: 27

Problem: What value of remaining at 2 h has been recorded for this entry: Ac-DRRRFNSADYAGPRRRKAD-NH2 [compound 23]
Solution: 42

Problem: What value of remaining at 2 h has been recorded for this entry: Ac-DRRRFASADYKGPRRRKAD-NH2 [compound 18]
Solution: 1
